System: antibodies to HCV
Assay: Envelope/NS-1 peptide ELISA, samples nonreactive on HCV core (VIIIE) and NS-4 (IIH) peptides
Format: binding, human
Details: sample 4
Absorbance values, listed per item
Write the number on its own, no unit after it.

Solved entries:
INSERT INTO assay_data (seq_text, observed_result) VALUES
  ('INSTALNCNESLNTGWLAGLIYQHKFNSSGCPERLASC [246C]', 0.046),
  ('VRNSTGLYHVTNDCPNSSIVYEAHDAILHTPGCPCVREGNVSRC [255B]', 0.021),
  ('WHINSTALNCNESLNTGWLAGLIYQHKFNSSGCPERLASC [246D]', 0.049);

Here is another sequence to look at.
*Q* # Absorbance lookup, item CLTVPASAYQVRNSTGLYHVTNDCPNSSIVYEAHDAILHTPGCVPCVREGNVSRC [255C]
*A* 0.021
